# Experimental Target: Basic fibroblast growth factor (bFGF) (UniProt P09038 P09038:143-288)
# Sequence (P09038 143-288, one chain of several): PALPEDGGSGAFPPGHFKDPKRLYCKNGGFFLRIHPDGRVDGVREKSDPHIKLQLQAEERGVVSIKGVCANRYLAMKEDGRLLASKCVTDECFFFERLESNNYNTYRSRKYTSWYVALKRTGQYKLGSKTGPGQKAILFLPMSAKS
# Assay Text: filter; specificity control
Readout: Kd (nM)
Response body: numeric value in nM, unit text excluded.

Just so you know, measured Kd for ligand 9 (class III) (ssRNA, 2'-NH2 all pyrimidines) RNA: GGGAGCUCAGAAUAAACGCUCAAGGAAUGAAUGUGAUGAACAGGUGUCGGGGUGGAUGGGUGGUUCGACAUGAGGCCCGGAUCCGGC came out at 500
